# targetOfAssay: D(2) dopamine receptor (Homo sapiens, UniProt P14416)
# Sequence (P14416 whole entry): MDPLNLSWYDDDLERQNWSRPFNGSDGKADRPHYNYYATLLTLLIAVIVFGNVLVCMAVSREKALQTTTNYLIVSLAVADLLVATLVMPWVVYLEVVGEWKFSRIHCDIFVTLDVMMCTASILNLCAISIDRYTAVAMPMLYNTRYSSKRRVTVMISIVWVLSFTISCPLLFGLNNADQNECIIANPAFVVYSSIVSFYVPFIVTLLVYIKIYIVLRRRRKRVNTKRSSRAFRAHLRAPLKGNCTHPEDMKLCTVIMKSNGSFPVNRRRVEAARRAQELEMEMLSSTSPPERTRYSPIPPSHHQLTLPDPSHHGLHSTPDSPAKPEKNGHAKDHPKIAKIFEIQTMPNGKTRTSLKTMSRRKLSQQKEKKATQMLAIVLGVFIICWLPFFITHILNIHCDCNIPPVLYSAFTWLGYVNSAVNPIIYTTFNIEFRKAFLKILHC
# procedureSummary: Displacement of [3H]spiperone from human DRD2 Long receptor expressed in chinese hamster CHO cells by radioligand binding assay
# Assay type: cell-based
Collected Ki values appear next to each entry.
The answer is to be given in nM; state only the numeric part.

Look over these answered cases.
{"columns": ["structureSmilesString", "unitSpec", "Ki"],
 "data": [
  ["CCCN(CCCCNC(=O)c1ccc(OCCCc2cn(CCCCCCCCn3cc(CCCOc4ccc(C(=O)NCCCCN(CCC)C5Cc6ccccc6C5)cc4OC)nn3)nn2)c(OC)c1)C1Cc2ccccc2C1", "nM", 16],
  ["CCCN(CCCCNC(=O)c1ccc(OCCCc2cn(CCCCCCCCn3cc(CCCOc4ccc(C(=O)NCCCCN5CCN(c6ccccc6OC)CC5)cc4OC)nn3)nn2)c(OC)c1)C1Cc2ccccc2C1", "nM", 25],
  ["COc1cc(C(=O)NCCCCN2CCN(c3ccccc3OC)CC2)ccc1OCCCc1cn(CCCCCCCCn2cc(CCCOc3ccc(C(=O)NCCCCN4CCN(c5ccccc5OC)CC4)cc3OC)nn2)nn1", "nM", 110],
  ["CCCCn1cc(CCCOc2ccc(C(=O)NCCCCN(CCC)C3Cc4ccccc4C3)cc2OC)nn1", "nM", 12],
  ["CCCCn1cc(CCCOc2ccc(C(=O)NCCCCN3CCN(c4ccccc4OC)CC3)cc2OC)nn1", "nM", 17]
]}

Now, please, on to the next compound.
Prompt line: Tell me the measured Ki of `CCCN(CCCCNC(=O)c1ccc(OCCCc2cn(CCCCCCCCn3cc(CCCOc4ccc(CN5CCN(c6ccccc6OC)CC5)cc4OC)nn3)nn2)c(OC)c1)C1Cc2ccccc2C1` , please.
Response line: 14

---

# targetOfAssay: UniProt:P14416
# procedureSummary: Partial agonist activity at DRD2 Long receptor expressed in CHO cells assessed as inhibition of forskolin-stimulated cAMP accumulation by bioluminescence assay
# Assay type: functional, cell-based
valueKind: EC50 (nM)
The answer is to be given in nM; state only the numeric part.

Prompt line: Tell me the measured EC50 of `CCCN(CCCCNC(=O)c1ccc(OCCCc2cn(CCCCCCCCn3cc(CCCOc4ccc(CN5CCN(c6ccccc6OC)CC5)cc4OC)nn3)nn2)c(OC)c1)C1Cc2ccccc2C1` , please.
Response line: 380

---

# targetOfAssay: D(2) dopamine receptor (Homo sapiens)
# procedureSummary: Displacement of [3H]spiperone from human DRD2 short receptor expressed in chinese hamster CHO cells by radioligand binding assay
# Type: cell-based
pKi: −log10 of the molar value.
Short version: pKi at least 8 is YES, less is NO.

{"columns": ["structureSmilesString", "classLabel"],
 "data": [
  ["CCCCn1cc(CCCOc2ccc(C(=O)NCCCCN(CCC)C3Cc4ccccc4C3)cc2OC)nn1", "YES"]
]}

Prompt line: pKi >= 8 for `COc1cc(C(=O)NCCCCN2CCN(c3ccccc3OC)CC2)ccc1OCCCc1cn(CCCCCCCCn2cc(CCCOc3ccc(C(=O)NCCCCN4CCN(c5ccccc5OC)CC4)cc3OC)nn2)nn1` ?
Response line: NO

---

# targetOfAssay: D(1A) dopamine receptor (Sus scrofa)
# Sequence (P50130 whole entry): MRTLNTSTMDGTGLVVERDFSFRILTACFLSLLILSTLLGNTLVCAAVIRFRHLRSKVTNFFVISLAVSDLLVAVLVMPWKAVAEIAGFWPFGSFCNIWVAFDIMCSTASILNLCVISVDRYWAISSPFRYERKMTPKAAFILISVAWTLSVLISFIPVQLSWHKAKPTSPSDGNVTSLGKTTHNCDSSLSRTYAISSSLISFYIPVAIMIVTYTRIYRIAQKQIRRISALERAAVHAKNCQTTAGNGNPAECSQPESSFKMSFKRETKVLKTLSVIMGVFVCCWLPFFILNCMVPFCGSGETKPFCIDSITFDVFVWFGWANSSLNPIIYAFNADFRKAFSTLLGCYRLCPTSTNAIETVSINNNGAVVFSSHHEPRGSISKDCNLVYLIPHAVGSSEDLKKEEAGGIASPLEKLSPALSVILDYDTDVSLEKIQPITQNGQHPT
# procedureSummary: Displacement of [3H]SCH 23390 from pig dopamine D1 receptor in striatal membrane
pKi: −log10 of the molar value.
Short version: pKi at least 6 is Condition met, less is Condition not met.

{"columns": ["structureSmilesString", "targetOfAssay", "classLabel"],
 "data": [
  ["CCCCn1cc(CCCOc2ccc(C(=O)NCCCCN(CCC)C3Cc4ccccc4C3)cc2OC)nn1", "D(1A) dopamine receptor (Sus scrofa)", "Condition not met"],
  ["CCCN(CCCCNC(=O)c1ccc(OCCCc2cn(CCCCCCCCn3cc(CCCOc4ccc(CN5CCN(c6ccccc6OC)CC5)cc4OC)nn3)nn2)c(OC)c1)C1Cc2ccccc2C1", "D(1A) dopamine receptor (Sus scrofa)", "Condition met"],
  ["CCCN(CCCCNC(=O)c1ccc(OCCCc2cn(CCCCCCCCn3cc(CCCOc4ccc(C(=O)NCCCCN5CCN(c6ccccc6OC)CC5)cc4OC)nn3)nn2)c(OC)c1)C1Cc2ccccc2C1", "D(1A) dopamine receptor (Sus scrofa)", "Condition met"],
  ["COc1cc(C(=O)NCCCCN2CCN(c3ccccc3OC)CC2)ccc1OCCCc1cn(CCCCCCCCn2cc(CCCOc3ccc(C(=O)NCCCCN4CCN(c5ccccc5OC)CC4)cc3OC)nn2)nn1", "D(1A) dopamine receptor (Sus scrofa)", "Condition not met"]
]}

Prompt line: pKi >= 6 for `CCCN(CCCCNC(=O)c1ccc(OCCCc2cn(CCCCCCCCn3cc(CCCOc4ccc(C(=O)NCCCCN(CCC)C5Cc6ccccc6C5)cc4OC)nn3)nn2)c(OC)c1)C1Cc2ccccc2C1` ?
Response line: Condition met
